# Tgt: UniProt A5A4K8
# Sequence (A5A4K8 whole entry): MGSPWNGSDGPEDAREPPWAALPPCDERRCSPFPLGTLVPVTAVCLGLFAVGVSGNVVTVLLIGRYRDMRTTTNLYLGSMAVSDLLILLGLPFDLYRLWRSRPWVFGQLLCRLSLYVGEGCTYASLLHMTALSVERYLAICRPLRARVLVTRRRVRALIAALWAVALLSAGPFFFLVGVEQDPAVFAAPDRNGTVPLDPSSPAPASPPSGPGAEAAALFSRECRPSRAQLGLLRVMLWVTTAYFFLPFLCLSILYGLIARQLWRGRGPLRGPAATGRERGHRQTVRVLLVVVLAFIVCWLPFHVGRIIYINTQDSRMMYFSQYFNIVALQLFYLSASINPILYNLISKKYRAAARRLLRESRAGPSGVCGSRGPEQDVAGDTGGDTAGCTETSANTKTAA
# Experiment summary: Agonist activity at motilin receptor in rabbit smooth muscle assessed as maximal possible tissue contraction
API: label(entry) gives class 1 if the entry's EC50 is strictly smaller than 70 nM; on equality or larger values it gives class 0.

>  <Molecule>
CC[C@H]1OC(=O)[C@H](C)[C@@H](O[C@H]2C[C@@](C)(OC)[C@@H](O)[C@H](C)O2)[C@H](C)[C@@H](O[C@@H]2O[C@H](C)C[C@H](N(C)C(C)C)[C@H]2O)[C@](C)(O)C[C@@H](C)[C@H](OCC(=O)NC(C)C)[C@H](C)[C@@H](O)[C@]1(C)O

>  <Assigned category>
class 0

$$$$
>  <Molecule>
CC[C@H]1OC(=O)[C@H](C)[C@@H](O[C@H]2C[C@@](C)(OC)[C@@H](O)[C@H](C)O2)[C@H](C)[C@@H](O[C@@H]2O[C@H](C)C[C@H](N(C)C(C)C)[C@H]2O)[C@](C)(O)C[C@@H](C)[C@H](OCCCCC(=O)NC)[C@H](C)[C@@H](O)[C@]1(C)O

>  <Assigned category>
class 0

$$$$
>  <Molecule>
CC[C@H]1OC(=O)[C@H](C)[C@@H](O[C@H]2C[C@@](C)(OC)CC(C)O2)[C@H](C)[C@@H](O[C@@H]2O[C@H](C)C[C@H](N(C)CC)[C@H]2O)C2(C)CC(C)=C(O2)[C@H](C)[C@@H](O)[C@H]1C (single isomer, unassigned)

>  <Assigned category>
class 1

$$$$

# input In plain terms, does CC[C@H]1OC(=O)[C@H](C)[C@@H](O[C@H]2C[C@@](C)(OC)[C@@H](O)[C@H](C)O2)[C@H](C)[C@@H](O[C@@H]2O[C@H](C)C[C@H](N(C)C(C)C)[C@H]2O)[C@](C)(O)C[C@@H](C)[C@H](OCCCC(=O)NC)[C@H](C)[C@@H](O)[C@]1(C)O come in under 70 nM for EC50?
# output class 0

# input In plain terms, does CC[C@H]1OC(=O)[C@H](C)[C@@H](O[C@H]2C[C@@](C)(OC)[C@@H](O)[C@H](C)O2)[C@H](C)[C@@H](O[C@@H]2O[C@H](C)C[C@H](N(C)C(C)C)[C@H]2O)[C@](C)(O)C[C@@H](C)[C@H](OCC(=O)NC)[C@H](C)[C@@H](O)[C@]1(C)O come in under 70 nM for EC50?
# output class 1

# input In plain terms, does CC[C@H]1OC(=O)[C@H](C)[C@@H](O[C@H]2C[C@@](C)(OC)[C@@H](O)[C@H](C)O2)[C@H](C)[C@@H](O[C@@H]2O[C@H](C)C[C@H](N(C)C(C)C)[C@H]2O)[C@](C)(O)C[C@@H](C)[C@H](OCC(=O)NC)[C@H](C)[C@@H](O)[C@H]1C come in under 70 nM for EC50?
# output class 0
